species on record: Rattus norvegicus; test: DrugMatrix - Regimen: Daily Repeat; format: toxicity, organism-based, Sprague-Dawley; design: regimen Daily Repeat, gender Male, age 6-8 weeks; conditions: in vivo, iv, 0 mg/kg, 120 h, tissue Plasma, dose level Control, time 5 day, vehicle 100 % SALINE
readout-type: TOTAL PROTEIN

compound=CC(=O)N[C@@H]1[C@H](Oc2c3cc4cc2Oc2ccc(cc2Cl)[C@@H](O[C@@H]2O[C@@H](CO)[C@@H](O)[C@H](O)[C@@H]2NC(C)=O)[C@@H]2NC(=O)[C@H](NC(=O)[C@@H]4NC(=O)[C@H]4NC(=O)[C@@H](Cc5ccc(c(Cl)c5)O3)NC(=O)[C@H](N)c3ccc(O)c(c3)Oc3cc(O)cc4c3)c3ccc(O)c(c3)-c3c(O[C@H]4O[C@H](CO)[C@@H](O)[C@@H](O)[C@@H]4O)cc(O)cc3[C@@H](C(=O)O)NC2=O)O[C@@H](CO)[C@@H](O)[C@@H]1O readout_type="TOTAL PROTEIN" result="6.22 G/DL"
compound="COc1cccc2c1C(=O)c1c(O)c3c(c(O)c1C2=O)C[C@@](O)(C(=O)CO)C[C@@H]3O[C@H]1C[C@H](N)[C@@H](O)[C@H](C)O1 [EPIRUBICIN]" readout_type="TOTAL PROTEIN" result="6.1 G/DL"
compound="CCc1c2c(nc3ccc(OC(=O)N4CCC(N5CCCCC5)CC4)cc13)-c1cc3c(c(=O)n1C2)COC(=O)[C@]3(O)CC [IRINOTECAN]" readout_type="TOTAL PROTEIN" result="6.1 G/DL"
